pIC50: −log10 of the molar value.
# pIC50 measurements, system: UniProt:P33261
# Sequence (P33261 whole entry): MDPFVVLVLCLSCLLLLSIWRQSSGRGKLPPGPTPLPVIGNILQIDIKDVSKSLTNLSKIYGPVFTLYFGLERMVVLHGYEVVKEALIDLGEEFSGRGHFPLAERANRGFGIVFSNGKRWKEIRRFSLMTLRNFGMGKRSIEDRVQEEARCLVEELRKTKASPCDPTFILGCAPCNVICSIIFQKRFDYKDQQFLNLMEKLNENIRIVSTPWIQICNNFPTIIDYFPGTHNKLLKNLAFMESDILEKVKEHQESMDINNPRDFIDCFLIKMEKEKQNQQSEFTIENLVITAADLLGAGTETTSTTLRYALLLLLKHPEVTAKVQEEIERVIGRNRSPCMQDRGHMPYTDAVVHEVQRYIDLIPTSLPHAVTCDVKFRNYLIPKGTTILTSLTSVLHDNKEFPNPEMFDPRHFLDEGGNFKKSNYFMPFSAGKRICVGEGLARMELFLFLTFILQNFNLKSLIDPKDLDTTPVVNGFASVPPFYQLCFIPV

Worked cases, answers included:
{"columns": ["COMPOUND_STRING", "PARAMETER", "EXPERIMENTAL_RESULT"],
 "data": [
  ["CCOc1ccc(Oc2ccc(/C=C/[C@H](C)NC(C)=O)cn2)c(Cl)c1", "pIC50", "< 4.70"],
  ["CCOc1ccc(Oc2ncc(/C=C/[C@H](C)NC(C)=O)s2)cc1", "pIC50", "< 4.70"],
  ["CCOc1nc2ccc(Oc3ccc(/C=C/[C@H](C)NC(C)=O)cn3)c(Cl)c2s1", "pIC50", 4.74],
  ["CC(=O)N[C@@H](C)/C=C/c1ccc(Oc2ccc3nc(C(C)C)sc3c2Cl)nc1", "pIC50", 4.74],
  ["CC(=O)N[C@@H](C)/C=C/c1ccc(Oc2ccc(OCC(F)F)cc2Cl)nc1", "pIC50", "< 4.70"]
]}

Asked: I would be grateful if you could share the reported pIC50 for `CC(=O)N[C@@H](C)/C=C/c1ccc(Oc2ccc(OCC3CC3)cc2Cl)nc1` .
Given back: < 4.70

Asked: Name the recorded pIC50 for `CC(=O)N[C@@H](C)/C=C/c1cnc(Oc2ccc(OCC3CC3)cc2Cl)cn1` .
Given back: < 4.70

Asked: Please give the measured pIC50 for this compound: `COC(=O)N[C@@H](C)/C=C/c1cnc(Oc2ccc(OC(C)C)cc2)s1`
Given back: 5.19

----------
# STUDY_SYSTEM: Acetyl-CoA carboxylase 2 (Homo sapiens)
# Sequence (O00763 whole entry): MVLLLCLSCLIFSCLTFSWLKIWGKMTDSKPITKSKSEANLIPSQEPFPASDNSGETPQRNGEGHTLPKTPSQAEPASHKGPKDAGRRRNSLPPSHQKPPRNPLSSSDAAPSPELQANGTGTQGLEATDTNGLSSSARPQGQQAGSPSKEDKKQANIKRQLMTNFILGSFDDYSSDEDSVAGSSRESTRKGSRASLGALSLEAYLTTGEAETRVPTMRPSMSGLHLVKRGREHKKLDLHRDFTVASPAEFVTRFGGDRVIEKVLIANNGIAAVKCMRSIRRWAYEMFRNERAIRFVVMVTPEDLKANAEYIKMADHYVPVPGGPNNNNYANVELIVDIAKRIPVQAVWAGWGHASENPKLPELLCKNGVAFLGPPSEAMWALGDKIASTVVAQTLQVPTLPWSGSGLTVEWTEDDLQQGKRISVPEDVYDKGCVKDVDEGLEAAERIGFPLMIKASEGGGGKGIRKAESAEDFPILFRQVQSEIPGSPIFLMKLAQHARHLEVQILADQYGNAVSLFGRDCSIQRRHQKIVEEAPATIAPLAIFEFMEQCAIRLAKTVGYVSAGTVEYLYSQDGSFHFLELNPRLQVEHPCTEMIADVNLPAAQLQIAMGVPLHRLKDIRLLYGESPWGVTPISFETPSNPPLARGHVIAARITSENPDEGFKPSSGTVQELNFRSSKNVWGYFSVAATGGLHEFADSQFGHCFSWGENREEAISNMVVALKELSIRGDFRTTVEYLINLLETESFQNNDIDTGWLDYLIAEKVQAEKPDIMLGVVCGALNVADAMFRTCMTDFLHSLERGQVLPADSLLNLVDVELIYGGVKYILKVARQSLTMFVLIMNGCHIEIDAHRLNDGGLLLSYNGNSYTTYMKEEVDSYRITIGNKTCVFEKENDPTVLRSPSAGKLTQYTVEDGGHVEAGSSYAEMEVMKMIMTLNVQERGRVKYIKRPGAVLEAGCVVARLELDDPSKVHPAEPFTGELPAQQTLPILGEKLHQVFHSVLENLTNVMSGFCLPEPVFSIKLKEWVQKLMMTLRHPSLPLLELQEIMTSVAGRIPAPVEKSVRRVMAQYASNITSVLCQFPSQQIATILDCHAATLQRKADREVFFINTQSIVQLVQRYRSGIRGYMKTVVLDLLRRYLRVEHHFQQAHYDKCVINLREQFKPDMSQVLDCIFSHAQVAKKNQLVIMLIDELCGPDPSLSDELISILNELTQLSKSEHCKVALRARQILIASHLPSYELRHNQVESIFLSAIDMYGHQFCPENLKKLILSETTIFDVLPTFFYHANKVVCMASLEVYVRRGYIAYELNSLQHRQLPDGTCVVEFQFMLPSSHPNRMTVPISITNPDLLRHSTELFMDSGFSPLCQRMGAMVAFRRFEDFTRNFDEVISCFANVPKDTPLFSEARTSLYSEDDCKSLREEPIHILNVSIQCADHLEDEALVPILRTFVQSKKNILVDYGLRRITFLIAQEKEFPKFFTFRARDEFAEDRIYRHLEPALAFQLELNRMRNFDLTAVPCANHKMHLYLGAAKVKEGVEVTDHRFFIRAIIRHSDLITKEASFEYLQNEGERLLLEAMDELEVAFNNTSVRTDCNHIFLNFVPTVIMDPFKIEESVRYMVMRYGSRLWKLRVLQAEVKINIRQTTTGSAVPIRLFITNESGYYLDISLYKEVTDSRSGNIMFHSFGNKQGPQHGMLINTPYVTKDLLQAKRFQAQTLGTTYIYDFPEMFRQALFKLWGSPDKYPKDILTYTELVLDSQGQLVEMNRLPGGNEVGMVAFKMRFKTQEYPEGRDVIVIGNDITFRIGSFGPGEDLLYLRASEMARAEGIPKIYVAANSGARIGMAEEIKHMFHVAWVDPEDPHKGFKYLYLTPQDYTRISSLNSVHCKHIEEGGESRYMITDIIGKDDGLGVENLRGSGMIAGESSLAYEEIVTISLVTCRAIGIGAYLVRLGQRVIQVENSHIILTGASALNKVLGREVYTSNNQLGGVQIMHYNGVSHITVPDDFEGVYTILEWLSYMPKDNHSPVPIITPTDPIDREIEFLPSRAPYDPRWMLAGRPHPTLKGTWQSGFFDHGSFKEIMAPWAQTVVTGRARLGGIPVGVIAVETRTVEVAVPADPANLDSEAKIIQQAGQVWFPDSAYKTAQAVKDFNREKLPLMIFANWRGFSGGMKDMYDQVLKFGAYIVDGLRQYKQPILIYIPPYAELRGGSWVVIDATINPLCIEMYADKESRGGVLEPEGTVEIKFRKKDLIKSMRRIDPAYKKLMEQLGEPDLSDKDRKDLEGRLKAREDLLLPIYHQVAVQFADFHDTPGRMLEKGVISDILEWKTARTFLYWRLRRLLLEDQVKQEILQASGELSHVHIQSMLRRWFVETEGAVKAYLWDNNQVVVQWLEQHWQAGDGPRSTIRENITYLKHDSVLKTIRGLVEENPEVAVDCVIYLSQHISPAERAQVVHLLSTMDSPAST
# ASSAY_SUMMARY: Inhibition of recombinant human ACC2 assessed as reduction in conversion of acetyl-CoA to malonyl-CoA incubated for 1 to 3 hrs with substrate by MALDI-TOF-MS analysis
The entries below are paired with their reported IC50.
# unit: nM | format: bare number

The cases that follow already have their IC50 on record.
{"columns": ["COMPOUND_STRING", "READOUT_UNITS", "IC50"],
 "data": [
  ["CC(=O)N[C@@H](C)/C=C/c1nnc(Oc2ccc(OCC3CC3)cc2Cl)s1", "nM", 253],
  ["CC(=O)N[C@@H](C)/C=C/c1ccc(Oc2ccc(OCC(F)F)cc2Cl)nc1", "nM", 84],
  ["CC(=O)N[C@@H](C)/C=C/c1cnc(Oc2ccc(OCC3CC3)cc2Cl)cn1", "nM", 25]
]}

Asked: Recorded IC50 of `CC(=O)N[C@@H](C)/C=C/c1cnc(Oc2ccc(OCC3CC3)cc2Cl)nc1` , please.
Given back: 48

Asked: Which IC50 value belongs to `CC(=O)N[C@@H](C)/C=C/c1ccc(Oc2ccc3nc(C(C)C)sc3c2Cl)nc1` ?
Given back: 4.3

Asked: Please look up its IC50: `CC(=O)N[C@@H](C)/C=C/c1cnc(Oc2ccc(OC(C)C)cc2)s1`
Given back: 66

Asked: Value lookup for IC50; key = `CCOc1nc2ccc(Oc3ccc(/C=C/[C@H](C)NC(C)=O)cn3)c(Cl)c2s1`
Given back: 1.9

Asked: Field request: IC50 | item: `CC(=O)N[C@@H](C)/C=C/c1ccc(Oc2ccc(OCC3CC3)cc2Cl)nn1`
Given back: 306

Asked: Field request: IC50 | item: `CC(=O)N[C@@H](C)/C=C/c1ccc(Oc2ccc3sc(C(C)C)nc3c2Cl)nc1`
Given back: 40

Asked: Param item = `CC(=O)N[C@@H](C)/C=C/c1ccc(Oc2ccc3nc(C(C)(C)O)sc3c2Cl)nc1` ; retrieve measured IC50.
Given back: 10

All figures here come from ChEMBL document CHEMBL4219273.
